Test system: NCI-H23
EXPERIMENT_SUMMARY: NCI tumour cell line growth inhibition, 48 h
Active and inactive are the calls of the source. Rule as the data show it: active = GI50 up to about 1.1 µM and inactive = higher.
Outcomes: 1 for active, -1 for inactive

MOLECULE	QUALITATIVE_LABEL
O=C(O)c1ccc(Nc2nc3cc(C(F)(F)F)ccc3nc2C(=O)O)cc1	-1
CC1OC(c2ccccc2)=CC(OCc2ccccc2)[C@H]1OCc1ccccc1 (stereo not given in full)	-1
Cn1cc2ccccc2c1-c1nc(N)nc(F)n1	-1
c1ccc(P(=Nc2ccccc2N=P(c2ccccc2)(c2ccccc2)c2ccccc2)(c2ccccc2)c2ccccc2)cc1	1
CC1(O)CC2(O)C=CC3=C(C(=O)c4cccc(O)c4C3=O)C2(O)C(=O)C1O (stereo not given)	-1
C/C(=N\Oc1cc(Cl)ncn1)c1ccccn1	-1
COC(=O)/C=C/C(=O)Nc1cc(Cl)c(Cl)cc1CC(=O)N(C)[C@H]1CCCC[C@@H]1N1CCCC1	-1
CCC(CCC(C)C1CCC2C3CC=C4CC(OC5OC(CO)C(O)C(O)C5O)CCC4(C)C3CCC12C)C(C)C (stereo not given)	-1
O=C(O)CCNc1ccccc1C(=O)O	-1
COc1ccc(C[C@H]2COC(=O)[C@@H]2Cc2ccccc2)cc1OC	-1
